test: small-molecule microarray binders of probe aXIP, primary screen, biochemical, NeuroSMM set, 635/667 nm fluorescence (AID 1119); conditions: higher = more signal, called active from +8 up or from −8 down;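 note: probe is the protein aXip251-270 applied at 1 µg/mL to compound-printed slides; binding of probe to printed compounds measured as 667 nm fluorescence plus signal to noise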
The source made the active and inactive calls.
OUTCOME_MEASURE: composite Z-score

Use these answered entries as a reference point.
CC(=CC1CCCCC1)[C@@H](NC(=O)c1ccc(C(F)(F)F)cc1)c1ccc(-c2ccccc2)cc1: -0.193 (inactive)
CN1C=C(C(=O)OCCS(C)(=O)=O)C(C(=O)OCCS(C)(=O)=O)=CC(CCCO)=CC1C1CC1 (stereo unspecified): -0.561 (inactive)
NCCCCCNC(=O)[C@H]1C[C@H]2C(=O)NCC(=O)N2[C@H]1c1cccc(OCCO)c1: 0.131 (inactive)
O=C(O)[C@@]1(Cc2ccccc2)N=C(c2ccc(OCCCO)cc2)O[C@H]1c1ccccc1: -0.419 (inactive)
COC(=O)[C@@]1(Cc2ccc(F)cc2)[C@H]2c3cc(C(=O)N4CCCC4)n(Cc4cccc5ccccc45)c3C[C@H]2CN1C(=O)c1ccccc1: -0.421 (inactive)

Kindly consider the entry below.
[Q] Name the reported composite Z-score value associated with the compound C=CCC(OC(C)=O)[C@@H]1[C@@H](N(Cc2ccc(-c3ccccc3)cc2)C(=O)Cc2ccc(OC)cc2)c2cc(OCCCO)ccc2N1C(=O)c1ccc2ccccc2n1 (stereo partly specified)
[A] 0.245 (inactive)

====

experiment: small-molecule microarray binders of probe aNog, primary screen, biochemical, biotinylated probe, 635/667 nm fluorescence (AID 1115); details: higher = more signal;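 note: probe is biotinylated aNog protein used at 0.15 µg/mL for 1 h at 4 C; z-score combines 667 nm fluorescence of each spot with its signal to noise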
Label T for high-side composite z-score (at or above 1) and F for low-side composite z-score (below it).

COC(=O)C(CC#Cc1ccc2c(c1)[C@]1(C(=O)N2)[C@H](C(=O)NC[C@H](O)c2ccccc2)[C@H]2C(=O)O[C@H](c3ccccc3)[C@H](c3ccccc3)N2[C@@H]1c1ccc(OCCO)cc1)C(=O)OC: F
COCCOC(=O)N1C(=O)[C@@]2(c3cc(C#CCC(C(=O)OC)C(=O)OC)ccc31)[C@H](C(=O)N1CCCCCCC1)[C@H]1C(=O)O[C@H](c3ccccc3)[C@H](c3ccccc3)N1[C@@H]2c1ccc(OCCO)cc1: T
COC(=O)[C@@]1(Cc2ccc(OC)cc2)[C@H]2c3cc(C(=O)N4CCCC4)n(CCc4c[nH]c5cc(F)ccc45)c3C[C@H]2CN1C(=O)c1ccccc1: T
[N-]=[N+]=NCc1ccccc1[C@H]1OC(c2ccc(OCCCO)cc2)=N[C@@]1(CCS(=O)(=O)c1ccccc1)C(=O)N1CCOCC1: T
COc1cc(C(O)C2C=CC3C(=O)N(c4ccccc4)C(=O)C3N2Nc2ccc(C#N)cc2)cc(OC)c1OC (stereo not given): T
O=C1O[C@@H](c2ccccc2)[C@@H](c2ccccc2)N2[C@@H](c3ccccc3OCCO)[C@]3(C(=O)Nc4ccc(C#CC5(O)CCCCCC5)cc43)[C@@H](C(=O)Nc3nc4ccccc4s3)[C@H]12: F

[Q] composite z-score >= 1 for CC(C)C[C@@H]1NC(=O)[C@H]2C[C@@H](C(=O)NCCCCCNC(=O)CS)[C@@H](c3cccc(OCCO)c3)N2C1=O ?
[A] F

[Q] composite z-score >= 1 for C[C@]1(C(=O)NCc2ccccc2)c2ccccc2C(=O)N(Cc2ccc(OC(F)(F)F)cc2)[C@H]1c1ccc(CO)cc1 ?
[A] F

[Q] composite z-score >= 1 for CO[C@H]1O[C@H](CO)[C@@H](OC(=O)Nc2ccc(Oc3ccccc3)cc2)[C@H](OC(=O)Nc2ccccc2)[C@H]1OC(=O)Nc1ccccc1 ?
[A] F

[Q] composite z-score >= 1 for CN(C)CCCNC(=O)[C@@]1(Cc2ccccc2I)c2ccccc2C(=O)N(Cc2ccccc2C(F)(F)F)[C@H]1c1ccc(CO)cc1 ?
[A] F

====

experiment: inhibitors of hydroxyurea-induced Chk1 phosphorylation, primary screen, imaging, HeLa, phospho-Chk1 antibody, percent positive cells (AID 1186); details: hydroxyurea-induced phospho-Chk1 immunofluorescence imaging, higher = more signal
Activity calls are given as the source filed them. How the calls were made is not given here.
The entries below come with measured z-score values attached.

COc1ccc(NN2C(C(O)c3ccc(OC)c(OCc4ccccc4)c3)C=CC3C(=O)N(C4CCCCC4)C(=O)C32)cc1 (stereo unspecified): -0.487 (inactive)

[Q] Name the reported z-score value associated with the compound O=C(CCN1CCOCC1)c1cccc(O)c1
[A] -0.111 (inactive)

[Q] Name the reported z-score value associated with the compound [N-]=[N+]=NCc1ccccc1C[C@@]1(C(=O)NCC(O)CO)N=C(c2ccc(OCCCO)cc2)O[C@@H]1c1ccccc1CN=[N+]=[N-] (stereo partly specified)
[A] -0.0621 (inactive)

[Q] Name the reported z-score value associated with the compound CCCCCN1CC=CC23O[C@@H]4/C=C\CCC(C)OC(=O)C4[C@H]2C(=O)N(CCCCCO)[C@@H]3C1=O (stereo partly specified)
[A] -0.464 (inactive)

[Q] Name the reported z-score value associated with the compound [N-]=[N+]=NCc1ccccc1[C@@H]1OC(c2ccc(OCCCO)cc2)=N[C@]1(Cc1ccccc1N=[N+]=[N-])C(=O)NCc1ccccc1
[A] -0.76 (inactive)

[Q] Name the reported z-score value associated with the compound COC(=O)[C@@]1(Cc2ccc(OC)cc2)[C@H]2c3cc(C(=O)N4CCCC4)n(CCc4c[nH]c5cc(F)ccc45)c3C[C@H]2CN1C(=O)c1ccccc1
[A] 0.527 (inactive)

====

test system: Neuregulin-1 EGF-like domain; assay: binders of neuregulin-1 EGF-like domain, primary screen, biochemical, small-molecule microarray, 635 nm fluorescence (AID 1081); settings: small-molecule microarray binding, higher = more signal;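 note: binding of the protein to compounds printed on small-molecule microarray slides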
OUTCOME_MEASURE: composite z-score

Use these answered entries as a reference point.
O=C1C2C=CC(C(O)c3cccs3)N(Nc3ccccc3F)C2C(=O)N1c1ccccc1 (stereo not given): 1.17
CC(=O)NCCCC[C@@H]1NC(=O)[C@@H]2C[C@H](C(=O)NCCCCN(C)C)[C@H](c3ccc(O)cc3)N2C1=O: 0.939
CCCCCN1CC=CC23O[C@@H]4/C=C\CCC(C)OC(=O)C4[C@H]2C(=O)N(CCCCCO)[C@@H]3C1=O (stereo not given in full): -0.69
COc1ccc(CCNC(=O)[C@@H]2c3ccccc3C(=O)N(Cc3ccc(OC(F)(F)F)cc3)[C@H]2c2ccc(CO)cc2)cc1: 0.882
N#Cc1ccc(NN2C(C(O)c3ccc([N+](=O)[O-])cc3)C=CC3C(=O)N(c4ccccc4)C(=O)C32)cc1 (stereo not given): 1.35
O=C1O[C@@H](c2ccccc2)[C@@H](c2ccccc2)N2[C@@H](c3ccc(OCCO)cc3)[C@]3(C(=O)Nc4ccccc43)[C@@H](C(=O)Nc3nc4ccccc4s3)[C@H]12: 1.3
CS(=O)(=O)CCOC(=O)C1=CC(c2ccc(CO)cc2)=CC(C2CC2)N(Cc2cc3c(cc2Br)OCO3)C=C1C(=O)OCCS(C)(=O)=O (stereo not given): 1.27
Cc1ccc(S[C@]2(C(=O)NC3CC3)CC(=O)N(C3CCCCC3)[C@@H]2c2ccc(CO)cc2I)cc1: 1.31
CCCCC=C[C@@H](NC(=O)c1ccco1)c1ccccc1: -0.628
CC(C)C(=C=CC[C@H](O)c1ccccc1OCCO)C[C@H](O)c1ccccn1: 1.36

[Q] Name the reported composite z-score value associated with the compound COCCOC(=O)N1C(=O)[C@@]2(c3cc(C#CC4(O)CCCCCC4)ccc31)[C@H](C(=O)N1CCCCCCC1)[C@H]1C(=O)O[C@H](c3ccccc3)[C@H](c3ccccc3)N1[C@@H]2c1ccccc1OCCO
[A] 1.28

[Q] Name the reported composite z-score value associated with the compound C=C(CCCC)/C(=C/C[C@H](OC(C)=O)c1ccc(CO)o1)c1cnc2ccccc2c1
[A] 1.26

[Q] Name the reported composite z-score value associated with the compound CCOC(=O)C[C@H]1[C@H](OC(=O)c2ccccc2-c2ccccc2)[C@@H](NC(=O)c2ccc3ccccc3c2)c2cc(OCCCO)ccc2N1C(=O)c1ccc2ccccc2n1
[A] 0.545

[Q] Name the reported composite z-score value associated with the compound Cc1ccc(S[C@]2(C(=O)O)CC(=O)N(C3Cc4ccccc4C3)[C@@H]2c2ccc(CO)cc2I)cc1
[A] 0.78

[Q] Name the reported composite z-score value associated with the compound COCCOC(=O)N1C(=O)[C@@]2(c3cc(C#CCNC(N)=O)ccc31)[C@H](c1ccc(O)cc1)N1[C@H](c3ccccc3)[C@H](c3ccccc3)OC(=O)[C@H]1[C@@H]2C(=O)Nc1nc2ccccc2s1
[A] 0.297

[Q] Name the reported composite z-score value associated with the compound CC(C)C[C@@H]1NC(=O)[C@@H]2C[C@H](C(=O)NCCCCCC[N+](C)(C)C)[C@H](c3ccc(O)cc3)N2C1=O
[A] 1.46

[Q] Name the reported composite z-score value associated with the compound Cc1ccc(S[C@]2(C(=O)NCC(C)C)CC(=O)N(Cc3ccccc3)[C@@H]2c2ccc(CO)cc2I)cc1
[A] 1.27

[Q] Name the reported composite z-score value associated with the compound COc1ccc([Si](C)(C)[C@H]2[C@H](CC(=O)N(CCO)Cc3ccccc3)O[C@@]3(C(=O)N(Cc4cccc(N5CCC5=O)c4)c4ccccc43)[C@@H]2C)cc1
[A] 1.07

Values compiled from PubChem BioAssay.
